- System tested: T1, SIRPa on human monocytes (human, UniProt P78324 31-504)
- T1 construct: also called human monocytes (v1/v1); SIRPa variant 1 on monocytes
- Test: flow cytometry on human monocytes v1/v1 (Fc receptors blocked), PE anti-human Fc; readout MFI
Recorded EC50 for the following binders
I only need the number, in µg/mL, no unit after it.

Illustrative cases are given below, each with its answer.
Prompt line: So what does the record say about EC50 for HFLA (humanized 18D5 variant) (antibody, human IgG4 S228P, kappa, V domains shown) VH: EVQLVQSGAEVKKPGESLRISCKASGYSFTSYWVHWVRQMPGKGLEWMGNIDPSDSDTHYSPSFQGHVTLSVDKSISTAYLQLSSLKASDTAMYYCVRGGTGTMAYFAYWGQGTLVTVSS VL: DVVMTQSPLSLPVTLGQPASISCRSSQSLVHSYGNTYLYWYQQRPGQSPRLLIYRVSNRFSGVPDRFSGSGSGTDFTLKISRVEAEDVGVYFCFQGTHVPYTFGGGTKVEIKR ?
Response line: 0.328

Prompt line: Would you mind doing HEFLA (humanized 18D5 variant) (antibody, human IgG4 S228P, kappa, V domains shown) VH: EVQLVQSGAEVKKPGESLRISCKASGYSFTSYWVHWVRQMPGKGLEWMGNIDPSDSDTHYSPSFQGHVTLSVDKSISTAYLQLSSLKASDTAMYYCVRGGTGTLAYFAYWGQGTLVTVSS VL: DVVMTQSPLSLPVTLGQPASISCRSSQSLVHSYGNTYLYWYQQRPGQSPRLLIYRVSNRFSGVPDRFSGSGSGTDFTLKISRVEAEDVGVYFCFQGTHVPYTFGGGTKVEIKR as well?
Response line: 0.858

Prompt line: # iterate: HFLB (humanized 18D5 variant) (antibody, human IgG4 S228P, kappa, V domains shown) VH: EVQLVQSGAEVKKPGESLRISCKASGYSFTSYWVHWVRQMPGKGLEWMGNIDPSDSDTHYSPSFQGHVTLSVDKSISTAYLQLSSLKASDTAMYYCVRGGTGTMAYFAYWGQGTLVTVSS VL: DVVMTQSPLSLPVTLGQPASISCRSSQSLVHSYGNTYLYWFQQRPGQSPRLLIYRVSNRFSGVPDRFSGSGSGTDFTLKISRVEAEDVGVYYCFQGTHVPYTFGGGTKVEIKR
Response line: 0.467

More entries:
Prompt line: Entry HEFLB (humanized 18D5 variant) (antibody, human IgG4 S228P, kappa, V domains shown, also called anti-SIRPa HEFLB; HEFLB variant) VH: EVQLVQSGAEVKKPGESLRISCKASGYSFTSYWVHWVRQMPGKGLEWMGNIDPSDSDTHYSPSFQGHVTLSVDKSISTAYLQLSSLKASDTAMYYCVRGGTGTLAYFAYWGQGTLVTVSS VL: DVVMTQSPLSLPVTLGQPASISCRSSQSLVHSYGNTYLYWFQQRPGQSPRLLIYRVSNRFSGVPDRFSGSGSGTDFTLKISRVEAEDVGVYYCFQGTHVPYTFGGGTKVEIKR has what EC50?
Response line: 0.449

Prompt line: Please do the same for HALA (humanized 18D5 variant) (antibody, human IgG4 S228P, kappa, V domains shown) VH: EVQLVQSGAEVKKPGESLRISCKASGYTFTSYWVHWVRQMPGKGLEWIGNIDPSDSDTHYNQKFKDHVTLSVDKSISTAYLQLSSLKASDTAMYYCVRGGTGTMAWFAYWGQGTLVTVSS VL: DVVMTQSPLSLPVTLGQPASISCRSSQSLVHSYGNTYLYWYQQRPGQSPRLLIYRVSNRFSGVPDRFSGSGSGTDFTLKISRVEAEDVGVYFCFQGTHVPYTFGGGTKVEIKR as well.
Response line: 0.59

The values you see were collected from patent US20250215108A1.
